PROCEDURE DETAILS: melting temperature; fluorescence melt of hairpins on a sequencing array, two-state fit, raised by 9.35 °C to match UV melts
REPORTED CONDITIONS: sodium 0.088 M
Examples of sequences with documented Tm follow.

{"SEQUENCE INPUT": "GGAGAGGGAAACCTCCCC ((.((((....)))).))", "MEASUREMENT UNITS": "°C", "Tm": 39.9}
{"SEQUENCE INPUT": "GATCTCGAACGAGATC ((((((....))))))", "MEASUREMENT UNITS": "°C", "Tm": 60.2}
{"SEQUENCE INPUT": "GCGTTCGAAAGAAGGCGC ((((((....)))..)))", "MEASUREMENT UNITS": "°C", "Tm": 55.6}
{"SEQUENCE INPUT": "GCCGGGCGAAAGCACCGC ((.(.((....)).).))", "MEASUREMENT UNITS": "°C", "Tm": 49}
